Assay: Quantitative High-Throughput drug screen in 47 multiple myeloma cell lines against the NCATS MIPE library collection: KMS12BM_JCRB cell viability assay (AID 1918971); note: nearly all actives have a fitted effect of over 35% in size
Details: KMS12BM myeloma viability, CellTiter-Glo ATP, 48 h; series mostly up to 45.8 µM
Records with an inconclusive call do not appear. The source made the active and inactive calls. Calls come from the whole dose curve; as a rule, active = well fitted cell-killing curve with a large enough effect; inconclusive = small, poorly fitted or top-dose-only effect, or effect the other way; inactive = no such curve, though single readings can be large or run the other way.
Return exactly one item of True (active), False (inactive)

Worked cases, answers included:
COMPOUND	CLASS_LABEL
CCN(CC)CCOc1ccc(Nc2ncc3cc(-c4c(Cl)cccc4Cl)c(=O)n(C)c3n2)cc1	True
O=c1oc2cc(O)ccc2s1	False

Task: For "COc1c2occc2cc2ccc(=O)oc12" , which call appears in the assay record?
Output: True

Task: Now consider COc1ccc(C2(C#N)CCC(C(=O)O)CC2)cc1OC1CCCC1 (stereo not given) and answer again.
Output: False

Task: Now consider "Cc1ccc(C)c(OCCCC(C)(C)C(=O)O)c1" and answer again.
Output: False

Where do these numbers come from? They come from PubChem BioAssay (NCATS).
